Consider the following compounds; for each one, report its growth.
# Test system: DU-145 prostate
# measurementNotes: NCI-60 one-dose screen, 48 h (100 = growth as untreated, 0 = no growth, -100 = all killed)
# conditionDetails: 10 µM unless noted
Compounds without any hit were thinned out: in the full panel of roughly 83,000, 20% have a hit.
Give bare numbers, in %.

Some entries whose results are on file:
• C[C@]12CC[C@@H]3c4ccc(O)c([N+](=O)[O-])c4CC[C@H]3[C@@H]1CC[C@@H]2NS(=O)(=O)c1cccc(Br)c1 = 52.7
• O=C(CCc1nnc(Cn2cncn2)o1)c1nc2ccccc2[nH]1 = 109

Would you mind telling me what growth value was observed for CN(CC(=O)Nc1nc2ccccc2[nH]1)S(=O)(=O)c1ccc(Cl)cc1 ? 89.9

###

# Tested on: LOX IMVI melanoma
# measurementNotes: NCI-60 one-dose screen, 48 h (100 = growth as untreated, 0 = no growth, -100 = all killed)
# conditionDetails: 10 µM unless noted
About 83,000 compounds went through this panel and 20% of them were active in at least one assay; those are over-represented in the sample as a whole.
valueKind: growth (%)
Answers are plain numbers, in %.

Some entries whose results are on file:
• O=C(Nc1ncc([N+](=O)[O-])s1)c1cccc([N+](=O)[O-])c1 = 52.1
• N#CCNc1ccccc1N = 95.1
• COC(=O)CCC1=C(C)C(C)=N/C1=C\c1[nH]c(-c2ccc[nH]2)cc1OC = -55.5

Batch request: growth for each of the following compounds.
1. Cc1cc2c(cc1[N+](=O)[O-])NC(CNC(C)C)CC2 (centres undefined)
2. Clc1ccc2nc(Cl)c3ccccc3c2c1
3. CCC(CCC(C)C1CCC2C3CC=C4CC(O)CCC4(C)C3CCC12C)C(C)C (centres undefined) (tested in a mixture with another compound)
4. C[C@@H]1CC[C@H]2[C@@H](C)C(O)O[C@@H]3O[C@]4(C)CC[C@@H]1[C@]32OO4 (some centres undefined)
5. Oc1ccccc1/C=N\Nc1ccccc1

[91.3, 83.2, 99.1, 11.7, 53]

Batch request: growth for each of the following compounds.
1. O=[N+]([O-])c1ccc(Oc2cccc(C(F)(F)F)c2)c([N+](=O)[O-])c1
2. CCCOc1ccc2c(c1)CC[C@@H]1[C@@H]2CC[C@@]2(C)[C@H]1CC[C@]2(C)O
3. Cc1ccccc1-c1cc(Cc2ccccc2O)c(=O)[nH]n1
4. COc1ccc(OC)c2c1[nH]c(=O)c1c3ccccc3cn21
5. CCC1=C(c2ccc(OC)cc2)C(C)(C)Oc2cc(O)c(CN3CCCC3)cc21
6. CCN(CC)CCOc1ccc(C2=C(c3ccccc3)CCc3cc(OC)ccc32)cc1

1: 8.07; 2: 65; 3: 100; 4: -84.8; 5: 59.3; 6: -59.6

Batch request: growth for each of the following compounds.
1. Cc1nc(N)[nH]c(=O)c1C
2. CSC1=Nc2c(c(C)c(-c3ccccc3)n2CCCN2CCCCC2)C2=NC(=O)C[C@H](C)N12
3. Fc1ccc(-c2nnc(-c3c(-c4ccc(F)cc4)nc4ncccn34)o2)cc1
4. COc1cc(Oc2cc(-c3cccnc3)ccc2NC(=O)Nc2ccc(F)cc2F)cc(OC)c1OC
5. COc1cc(C2CC(c3ccc(C)cc3)=NN2C(C)=O)ccc1Oc1ccnc2cc(Cl)ccc12 (centres undefined)
6. C=C1c2c(C)nn(-c3ccc(C#CCOC4OC(CO)C(O)C(O)C4O)cc3)c2N(C)C23C[C@H]1C1(C)c4c(C)nn(-c5ccc(C#CCOC6OC(CO)C(O)C(O)C6O)cc5)c4N(C)C(C)(C[C@H]12)C3 (some centres undefined)
7. CCOc1cc(C(C)(C)C)ccc1C1=N[C@H](c2ccc(Cl)cc2)[C@H](c2ccc(Cl)cc2)N1C(=O)N1CCN(CC#Cc2cccc3c2CN([C@@H]2CCC(=O)NC2=O)C3=O)CC1
8. O=C(c1nn(-c2ccc(Cl)cc2)cc1O)n1nc(C(F)(F)F)cc1-c1ccccc1

[102, 42.3, 96.4, 107, 65.6, -42.4, 31.8, 32.8]

The reported numbers originate from PubChem BioAssay (NCI).
